pIC50: recorded values
Molecular target: UniProtKB P51679
Sequence (P51679 whole entry): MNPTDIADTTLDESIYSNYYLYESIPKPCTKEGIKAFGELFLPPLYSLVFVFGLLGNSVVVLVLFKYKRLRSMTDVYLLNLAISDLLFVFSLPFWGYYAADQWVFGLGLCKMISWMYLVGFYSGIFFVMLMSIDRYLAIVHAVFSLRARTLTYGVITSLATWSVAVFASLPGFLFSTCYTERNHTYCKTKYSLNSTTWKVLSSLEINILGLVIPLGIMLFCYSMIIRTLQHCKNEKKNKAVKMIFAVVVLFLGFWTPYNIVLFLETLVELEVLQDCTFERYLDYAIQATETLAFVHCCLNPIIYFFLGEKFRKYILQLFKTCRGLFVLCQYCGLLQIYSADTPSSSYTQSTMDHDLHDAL
Test: Antagonist activity at human recombinant CCR4 receptor expressed in CHO cell membranes by [35S]GTPgammaS binding assay
// pIC50 here means minus log10 of the molar concentration (mol/L)

For orientation, consider the following solved cases.
[[record]]
molecule = "CC(=O)NCc1cccc(Cn2nc(NS(=O)(=O)c3ccc(Cl)s3)c3c(C(F)F)cccc32)c1"
readout_type = "pIC50"
number = 7.00

[[record]]
molecule = "COc1cccc2c1c(NS(=O)(=O)c1ccc(Cl)s1)nn2Cc1ccnc(CNC(C)=O)c1"
readout_type = "pIC50"
number = 7.00

[[record]]
molecule = "CC(=O)NCc1cccc(Cn2nc(NS(=O)(=O)c3ccc(Cl)s3)c3c(C(C)=O)cccc32)c1"
readout_type = "pIC50"
number = 7.00

[[record]]
molecule = "COc1cccc2c1c(NS(=O)(=O)c1ccc(Cl)s1)nn2Cc1cccc(CNC(=O)[C@H]2COCCN2)c1"
readout_type = "pIC50"
number = 7.60

[[record]]
molecule = "CC(=O)NCc1cccc(Cn2nc(NS(=O)(=O)c3ccc(Cl)s3)c3c(C(C)O)cccc32)c1 (stereo unspecified)"
readout_type = "pIC50"
number = 7.70

[[record]]
molecule = "COc1cccc2c1c(NS(=O)(=O)c1ccc(Cl)s1)nn2Cc1cccc(CNC(=O)[C@@H]2COCCN2)c1"
readout_type = "pIC50"
number = 7.80

[[record]]
molecule = "COc1cccc2c1c(NS(=O)(=O)c1ccc(Cl)s1)nn2Cc1cccc(CNC(=O)C2CCO2)c1 (stereo unspecified)"
readout_type = "pIC50"
number = 7.50

[[record]]
molecule = "COc1cc(F)cc2c1c(NS(=O)(=O)c1ccc(Cl)s1)nn2Cc1cccc(CNC(C)=O)c1"
readout_type = "pIC50"
number = 7.40

[[record]]
molecule = "CC(=O)NCc1cccc(Cn2nc(NS(=O)(=O)c3ccc(Cl)s3)c3ccccc32)c1"
readout_type = "pIC50"
number = 6.60

[[record]]
molecule = "COc1cccc2c1c(NS(=O)(=O)c1ccc(Cl)s1)nn2Cc1cccc(CNC(=O)C2COCCN2C)c1 (single isomer, unassigned; isomer B)"
readout_type = "pIC50"
number = 8.20


Attention now turns to another entry.
**Q:** Which pIC50 is reported for this molecule? COc1cccc2c1c(NS(=O)(=O)c1ccc(Cl)s1)nn2Cc1cccc(CNC(=O)C2CCOCC2)c1
**A:** 7.50
